Here the recorded cytotoxicity at 10 µM is given for each entry.
# Assay comment: Toxicity liver stage against HepG2, at 10uM
# Assay type: cell-based
# Parameters: test concentration 10 uM, cell line HepG2-A16-CD81EGFP
# Experimental setup: human, HepG2-A16-CD81EGFP cells; read-out: INHIBITION
Your answer is read as %, so omit the unit and give the number.

// below: answered molecules
# Molecule, Value
rows = [
    ("CCC1CN(C(=O)COc2ccc(C(=O)NC3CC3)cc2)CCO1 (stereo unspecified)", -4.39),
    ("CCOc1ccnc(N2CCN(C(=O)c3c(CC)noc3C)CC2)n1", -5.43),
    ("CCOc1cc2c(cc1CNC(Cc1cccs1)c1nccs1)OCO2 (stereo unspecified)", 7.15),
    ("Cc1ccc(CCNC(=O)N2CCCC(Cc3nccn3C)C2)cn1 (stereo unspecified)", -9.26),
    ("OCCN1CCC(Cc2nccs2)CC1", 5.97),
]

Shifting focus to the molecule that follows.
Ask | Look up cytotoxicity at 10 µM: Cc1cnn(C2CCCN(C(=O)c3ccnc(-n4ccnc4)c3)C2)c1 (stereo unspecified)
Reply | -1.88

Taken from ChEMBL document CHEMBL4513216.
